Molecular target: human recombinant LPA2 expressed in CHO cells (Homo sapiens, UniProt Q9HBW0)
Construct: expressed in transfected cells; host or cells: CHO cells (CHO-hLPA2 cell line)
Sequence (Q9HBW0 whole entry): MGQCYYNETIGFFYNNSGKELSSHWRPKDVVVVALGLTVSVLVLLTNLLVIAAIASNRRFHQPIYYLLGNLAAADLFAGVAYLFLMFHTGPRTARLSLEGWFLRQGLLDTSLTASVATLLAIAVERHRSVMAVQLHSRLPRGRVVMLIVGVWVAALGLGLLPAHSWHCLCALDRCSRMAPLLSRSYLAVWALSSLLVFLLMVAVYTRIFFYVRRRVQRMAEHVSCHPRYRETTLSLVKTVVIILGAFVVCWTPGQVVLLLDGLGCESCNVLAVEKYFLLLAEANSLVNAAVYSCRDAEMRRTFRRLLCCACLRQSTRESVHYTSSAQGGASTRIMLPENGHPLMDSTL
Experiment: FLIPR calcium mobilization assay, LPA2 antagonism in CHO-hLPA2 cells
Format: cell-based
Settings: CHO-hLPA2 cells, inhibition of LPA EC80 Ca2+ response, 30 min pre-incubation; read-out: LPA2 IC50
From the text: The effectiveness of compounds of the present invention as LPA2 antagonist can be determined at the human recombinant LPA2 expressed in CHO cells, using a FLIPR assay in 384 well format. […] The raw data (peak height expressed as relative fluorescence units) are normalized and transformed into “percent of inhibition”. […]
quantity_measured: IC50

Use the examples below as a reference point.
COC(=O)Nc1nc(C)c(S(=O)(=O)N2CCN(C[C@H](C)Nc3ncnc4c(-c5cccc(CN6CCCC6)c5)cccc34)CC2)s1 [Example 22] : < 10 nM
C[C@@H](CN1CCN(S(=O)(=O)c2ccc3c(c2)CC(=O)N3)CC1)Nc1ncnc2c(-c3cccc(CN(C)C)c3)cccc12 [Example 76] : < 10 nM
COC(=O)Nc1nc(C)c(S(=O)(=O)N2CCN(C[C@H](C)Nc3ncnc4c(-c5c(C)noc5C)cccc34)CC2)s1 [Example 10] : < 10 nM
C[C@@H](CN1CCN(S(=O)(=O)c2ccc3[nH]c(=O)cnc3c2)CC1)Nc1ncnc2c(-c3cccnc3)cccc12 [Example 59] : 10 to 100 nM
Cc1cc(-c2ccc(S(=O)(=O)N3CCN(C[C@H](C)Nc4ncnc5c(-c6c(C)nn(C)c6C)cccc45)CC3)s2)on1 [Example 5] : < 10 nM
Cc1cc(-c2ccc(S(=O)(=O)N3CCN(C[C@H](C)Nc4ncnc5c(N6CCCC6)cccc45)CC3)s2)on1 [Example 20] : < 10 nM

human recombinant LPA2 expressed in CHO cells (Homo sapiens, UniProt Q9HBW0) assay, compound Cc1cc(-c2ccc(S(=O)(=O)N3CCN(C[C@H](C)Nc4ncnc5c(-c6c(C)noc6C)cccc45)CC3)s2)on1 [Example 3] , recorded IC50 = < 10 nM

human recombinant LPA2 expressed in CHO cells (Homo sapiens, UniProt Q9HBW0) assay, compound Cc1cc(-c2ccc(S(=O)(=O)N3CCN(C[C@H](C)Nc4ncnc5c(-c6cn(C)nc6C(F)(F)F)cccc45)CC3)s2)on1 [Example 14] , recorded IC50 = < 10 nM

human recombinant LPA2 expressed in CHO cells (Homo sapiens, UniProt Q9HBW0) assay, compound Cc1ccc(-c2cccc3c(N[C@@H](C)CN4CCN(S(=O)(=O)c5ccc6c(c5)sc(=O)n6C)CC4)ncnc23)cn1 [Example 100] , recorded IC50 = 10 to 100 nM

human recombinant LPA2 expressed in CHO cells (Homo sapiens, UniProt Q9HBW0) assay, compound C[C@@H](CN1CCN(S(=O)(=O)c2ccc3[nH]c(=O)sc3c2)CC1)Nc1ncnc2c(-c3cn(C)nc3C(F)(F)F)cccc12 [Example 79] , recorded IC50 = < 10 nM

human recombinant LPA2 expressed in CHO cells (Homo sapiens, UniProt Q9HBW0) assay, compound COC(=O)Nc1nc(C)c(S(=O)(=O)N2CCN(C[C@H](C)Nc3ncnc4c(-c5cnn(C)c5)cccc34)CC2)s1 [Example 65] , recorded IC50 = < 10 nM
